# assay_comment: Metabolic stability in rat hepatocytes assessed as intrinsic clearance
# Assay type: ADME, cell-based, Hepatocyte
# test_parameters: read-out: CLH
Listed here are compounds together with their documented CLint scaled.
measured_metric: CLint scaled (mL/min/kg)

> print(dat)
                      smiles.representation  limit.qualifier  assay.value
1  CCn1c(=O)[nH]c(=O)c2c1nc(Cc1cn3cc(C)sc3n1)n2CC1COC1                <           17
2  CCn1c(=O)[nH]c(=O)c2c1nc(Cc1cn3cc(C)sc3n1)n2Cc1ccccc1                =          514
3  CCn1c(=O)[nH]c(=O)c2c1nc(Cc1cn3cc(Cl)sc3n1)n2Cc1ccc(-c2ccn(C)n2)cc1                =          854
4  CCn1c(=O)[nH]c(=O)c2c1nc(Cc1cn3cc(Cl)sc3n1)n2CC1COC1                <           17
5  CCn1c(=O)[nH]c(=O)c2c1nc(Cc1cn3cc(Cl)sc3n1)n2Cc1ccccc1                <          115
6  CCn1c(=O)[nH]c(=O)c2c1nc(Cc1cn3c(n1)CCCC3)n2Cc1ccccc1                <          115
7  CCn1c(=O)[nH]c(=O)c2c1nc(Cc1cn3ccccc3n1)n2Cc1ccc(-c2ccn(C)n2)cc1                =          367

###

# assay_comment: MRT (0 to last) in Sprague-Dawley rat at 20 mg/kg, po measured upto 1440 mins by LC-MS/MS analysis
# Format: ADME, organism-based
# test_parameters: in vivo
measured_metric: MRT last at 24 h (h)

> print(dat)
                      smiles.representation   measured.metric  units.symbol  assay.value
1  CCn1c(=O)[nH]c(=O)c2c1nc(Cc1cn3cc(C)sc3n1)n2CC1COC1  MRT last at 24 h             h         2.91

###

# assay_comment: Plasma concentration in Sprague-Dawley rat at 50 mg/kg, po measured at 2 hrs by LC-MS/MS analysis
# Format: ADME, organism-based
measured_metric: concentration at 2 h (ng/mL)

> print(dat)
                      smiles.representation       measured.metric  assay.value
1  CCn1c(=O)[nH]c(=O)c2c1nc(Cc1cn3cc(C)sc3n1)n2CC1COC1  concentration at 2 h         1370

###

# assay_comment: Oral bioavailability in Sprague-Dawley rat at 50 mg/kg measured upto 1440 mins by LC-MS/MS analysis
# Type: ADME, organism-based
# test_parameters: in vivo
measured_metric: bioavailability (%)

> print(dat)
                      smiles.representation  measured.metric  assay.value
1  CCn1c(=O)[nH]c(=O)c2c1nc(Cc1cn3cc(C)sc3n1)n2CC1COC1  bioavailability         32.7

###

# assay_comment: Tmax in Sprague-Dawley rat at 20 mg/kg, po measured upto 1440 mins by LC-MS/MS analysis
# Type: ADME, organism-based
# test_parameters: in vivo
measured_metric: Tmax (min)

> print(dat)
                      smiles.representation  assay.value
1  CCn1c(=O)[nH]c(=O)c2c1nc(Cc1cn3cc(C)sc3n1)n2CC1COC1         25.2

###

# assayed_system: Tryptophan 5-hydroxylase 2 (Homo sapiens, UniProt Q8IWU9)
# Sequence (Q8IWU9 whole entry): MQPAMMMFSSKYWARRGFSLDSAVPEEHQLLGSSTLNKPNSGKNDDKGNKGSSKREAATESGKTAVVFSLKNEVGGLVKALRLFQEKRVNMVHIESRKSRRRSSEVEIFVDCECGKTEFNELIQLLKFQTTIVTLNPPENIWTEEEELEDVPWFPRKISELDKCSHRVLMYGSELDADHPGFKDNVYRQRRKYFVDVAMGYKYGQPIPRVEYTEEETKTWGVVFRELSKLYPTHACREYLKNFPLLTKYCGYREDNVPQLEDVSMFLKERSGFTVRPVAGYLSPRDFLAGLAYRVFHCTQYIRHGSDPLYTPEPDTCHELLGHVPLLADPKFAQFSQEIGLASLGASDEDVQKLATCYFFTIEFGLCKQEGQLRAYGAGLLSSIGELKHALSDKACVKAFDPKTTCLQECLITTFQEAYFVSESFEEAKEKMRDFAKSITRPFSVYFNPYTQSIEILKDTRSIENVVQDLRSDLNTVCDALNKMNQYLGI
# assay_comment: Inhibition of recombinant MBP-tagged full length human THP2 using L-Trp as substrate assessed as formation of 5-HTP by measuring fluorescent property
pIC50: −log10 of the molar value.
Listed here are molecules together with their documented pIC50.
measured_metric: pIC50

> print(dat)
                                    molecule  measured.metric  limit.qualifier  assay.value
 1  CCc1nc(C)ccc1OCC(=O)N1CCc2nc3n(c2C1c1ccc(Cl)cc1F)CCCC3 (racemic)            pIC50                =         7.29
 2  CCn1c(=O)[nH]c(=O)c2c1nc(Cc1cn3c(n1)CCCC3)n2Cc1cccc(C(=O)NC[C@H](NC(=O)OCc2ccccc2)C(=O)OC)c1            pIC50                =         7.20
 3  CCOC(=O)Cn1c(Cc2cn3cc(C)sc3n2)nc2c1c(=O)[nH]c(=O)n2CC            pIC50                =         7.43
 4  CCn1c(=O)[nH]c(=O)c2c1nc(Cc1cn3c(n1)CCCC3)n2CC1COC1            pIC50                =         7.24
 5  CCn1c(=O)[nH]c(=O)c2c1nc(Cc1cn3cc(C)sc3n1)n2CC1CCN(C(C)C)CC1            pIC50                <         5.00
 6  CCn1c(=O)[nH]c(=O)c2c1nc(Cc1cn3cc(C)sc3n1)n2Cc1cccc(C(=O)OC)c1            pIC50                =         7.66
 7  CCn1c(=O)[nH]c(=O)c2c1nc(Cc1cn3cc(C)sc3n1)n2CC1CCN(C)CC1            pIC50                <         5.00
 8  CCn1c(=O)[nH]c(=O)c2c1nc(Cc1cn3c(n1)CCCC3)n2CC1CCC1            pIC50                =         7.49
 9  CCn1c(=O)[nH]c(=O)c2c1nc(Cc1cn3cc(C)sc3n1)n2CC(=O)O            pIC50                <         5.00
10  CCn1c(=O)[nH]c(=O)c2c1nc(Cc1cn3cc(C)sc3n1)n2CC1CC1            pIC50                =         7.64
11  CCn1c(=O)[nH]c(=O)c2c1nc(Cc1cn3cc(C)sc3n1)n2CCCOC            pIC50                =         7.42
12  CCn1c(=O)[nH]c(=O)c2c1nc(Cc1cn3c(n1)CCCC3)n2Cc1cccc(C(=O)O)c1            pIC50                =         6.51
13  CCn1c(=O)[nH]c(=O)c2c1nc(Cc1cn3cc(C)sc3n1)n2CCCC(=O)O            pIC50                =         7.16
14  CCn1c(=O)[nH]c(=O)c2c1nc(Cc1cn3cc(C)sc3n1)n2CCC=C(C)C            pIC50                =         6.94
15  CCn1c(=O)[nH]c(=O)c2c1nc(Cc1cn3cc(Cl)sc3n1)n2CC1COC1            pIC50                =         7.43
16  CCn1c(=O)[nH]c(=O)c2c1nc(Cc1cn3c(n1)CCCC3)n2Cc1cccc(C(=O)OC)c1            pIC50                =         7.60
17  CCn1c(=O)[nH]c(=O)c2c1nc(Cc1cn3cc(C)sc3n1)n2Cc1ccccn1            pIC50                =         7.74
18  CCn1c(=O)[nH]c(=O)c2c1nc(Cc1cn3cc(C)sc3n1)n2CC1COC1            pIC50                =         7.80
19  CCn1c(=O)[nH]c(=O)c2c1nc(Cc1cn3cc(C)sc3n1)n2CC1CCC1            pIC50                =         7.51
20  CCn1c(=O)[nH]c(=O)c2c1nc(Cc1cn3cc(C)sc3n1)n2CC=C(C)C            pIC50                =         7.49
21  CCn1c(=O)[nH]c(=O)c2c1nc(Cc1cn3cc(C)sc3n1)n2CC1CCNCC1            pIC50                <         5.00
22  CCOC(=O)CCCn1c(Cc2cn3cc(C)sc3n2)nc2c1c(=O)[nH]c(=O)n2CC            pIC50                =         7.59
23  CCn1c(=O)[nH]c(=O)c2c1nc(Cc1cn3cc(C)sc3n1)n2Cc1cccc(C)n1            pIC50                =         7.62
24  CCn1c(=O)[nH]c(=O)c2c1nc(Cc1cn3cc(C)sc3n1)n2CC1CCCCC1            pIC50                =         6.82
25  CCn1c(=O)[nH]c(=O)c2c1nc(Cc1cn3cc(C)sc3n1)n2Cc1ccc(C(F)(F)F)cc1            pIC50                =         7.28
26  CCn1c(=O)[nH]c(=O)c2c1nc(Cc1cn3cc(C)sc3n1)n2Cc1cccc(C(F)(F)F)c1            pIC50                =         7.39
27  CCn1c(=O)[nH]c(=O)c2c1nc(Cc1cn3c(n1)CCCC3)n2Cc1cccc(C(=O)NC[C@H](N)C(=O)O)c1            pIC50                =         6.75
28  CCn1c(=O)[nH]c(=O)c2c1nc(Cc1cn3cc(C)sc3n1)n2C(C)C            pIC50                =         7.62
29  CCn1c(=O)[nH]c(=O)c2c1nc(Cc1cn3cc(C)sc3n1)n2Cc1cc(C)cc(C)c1            pIC50                =         7.47
30  CCn1c(=O)[nH]c(=O)c2c1nc(Cc1cn3c(n1)CCCC3)n2Cc1cccc(C(=O)NC[C@H](N)C(=O)OC)c1            pIC50                =         7.24
31  CCn1c(=O)[nH]c(=O)c2c1nc(Cc1cn3cc(C)sc3n1)n2Cc1cccc(C(=O)O)c1            pIC50                =         7.24
32  CCn1c(=O)[nH]c(=O)c2c1nc(Cc1cn3cc(C)sc3n1)n2CCC(=O)OC            pIC50                =         7.24
